tested on: MCF7; assay: Cytotoxicity against human MCF7 cells assessed as reduction in cell viability; assay type: functional, cell-based
For each record, write down the corresponding pIC50.
One number for each entry, as −log10 of the molar value.

Worked examples, 3 molecules total:
O=[N+]([O-])c1ccc(NC(CO)CO)c(C(F)(F)F)c1 = 4.05
O=[N+]([O-])c1ccc(NC(CCl)CCl)cc1 = 4.15
O=[N+]([O-])c1ccc(NC(CCl)CCl)c([N+](=O)[O-])c1 = 4.35

Note: attention shifts to another entry.
Entry O=[N+]([O-])c1ccc(NC(CCl)CCl)cc1C(F)(F)F , tested on MCF7, has a reported pIC50 of 4.48

---

Exercise: state measured viability at 100 µM for each of the molecules provided.
system: BXPC-3; experiment: Cytotoxicity against human BxPC3 cells assessed as cell viability at 100 uM relative to control; format: functional; conditions: read-out: Activity

Here is how some molecules turned out for viability at 100 µM.
O=[N+]([O-])c1ccccc1NC(CO)CO = 102%
O=[N+]([O-])c1ccc(NC(CO)CO)cc1 = 100%
O=[N+]([O-])c1ccc(NC(CO)CO)c(C(F)(F)F)c1 = 109%
O=[N+]([O-])c1cc(C(F)(F)F)ccc1NC(CO)CO = 108%
O=[N+]([O-])c1ccc(NC(CO)CO)c([N+](=O)[O-])c1 = 104%
O=[N+]([O-])c1ccc(NC(CCl)CCl)cc1 = 82.9%
O=[N+]([O-])c1ccccc1NC(CCl)CCl = 105%
O=[N+]([O-])c1ccc(NC(CCl)CCl)c(C(F)(F)F)c1 = 23.2%
O=[N+]([O-])c1ccc(NC(CO)CO)cc1C(F)(F)F = 108%
O=[N+]([O-])c1ccc(NC(CCl)CCl)cc1C(F)(F)F = 56.5%

Take each entry in turn and give its viability at 100 µM.
1. O=[N+]([O-])c1cc(C(F)(F)F)ccc1NC(CCl)CCl
2. O=[N+]([O-])c1ccc(NC(CCl)CCl)c([N+](=O)[O-])c1

1: 62.9%; 2: 103%

---

assay: Cytotoxicity against human MCF10A cells assessed as cell viability at 100 uM relative to control; format: cell-based, MCF-10A; conditions: read-out: Activity
Exercise: for every item that follows, state its recorded viability at 100 µM.
One number for each entry, in %.

Please review the following examples before continuing.
O=[N+]([O-])c1ccc(NC(CO)CO)cc1 = 103
O=[N+]([O-])c1ccccc1NC(CCl)CCl = 88.7

State the recorded viability at 100 µM for every item in the following list.
1. O=[N+]([O-])c1ccc(NC(CCl)CCl)c(C(F)(F)F)c1
2. O=[N+]([O-])c1ccc(NC(CO)CO)cc1C(F)(F)F
3. O=[N+]([O-])c1ccc(NC(CCl)CCl)c([N+](=O)[O-])c1
4. O=[N+]([O-])c1ccc(NC(CCl)CCl)cc1

47.5
102
78.8
82.7

Give viability at 100 µM for each of the items listed below.
1. O=[N+]([O-])c1ccc(NC(CCl)CCl)cc1C(F)(F)F
2. O=[N+]([O-])c1cc(C(F)(F)F)ccc1NC(CO)CO
3. O=[N+]([O-])c1cc(C(F)(F)F)ccc1NC(CCl)CCl
4. O=[N+]([O-])c1ccccc1NC(CO)CO
5. O=[N+]([O-])c1ccc(NC(CO)CO)c(C(F)(F)F)c1

1. 59.7
2. 102
3. 77.1
4. 100
5. 88.8

Please fill in: viability at 100 µM reported for O=[N+]([O-])c1ccc(NC(CO)CO)c([N+](=O)[O-])c1 = 105

---

tested on: A549; assay: Cytotoxicity against human A549 cells assessed as reduction in cell viability; assay type: functional, cell-based
measure_name: IC50

O=[N+]([O-])c1ccc(NC(CCl)CCl)c(C(F)(F)F)c1 = 57.7 µM
O=[N+]([O-])c1ccccc1NC(CCl)CCl = > 100 µM
O=[N+]([O-])c1cc(C(F)(F)F)ccc1NC(CO)CO = > 100 µM
O=[N+]([O-])c1ccc(NC(CO)CO)c([N+](=O)[O-])c1 = > 100 µM

Hi there! I need IC50 for each item below, if you can.
1. O=[N+]([O-])c1ccc(NC(CO)CO)cc1
2. O=[N+]([O-])c1ccc(NC(CO)CO)cc1C(F)(F)F

["> 100 µM", "> 100 µM"]

---

system: A549; test: Cytotoxicity against human A549 cells assessed as reduction in cell viability; type: functional, cell-based
pIC50: −log10 of the molar value.
measure_name: pIC50

Recorded pIC50, per entry:
O=[N+]([O-])c1ccc(NC(CCl)CCl)cc1 = < 4.00
O=[N+]([O-])c1ccc(NC(CCl)CCl)c([N+](=O)[O-])c1 = < 4.00
O=[N+]([O-])c1cc(C(F)(F)F)ccc1NC(CCl)CCl = 4.48

Please report pIC50 for every entry that follows.
1. O=[N+]([O-])c1ccccc1NC(CO)CO
2. O=[N+]([O-])c1ccc(NC(CCl)CCl)cc1C(F)(F)F
3. O=[N+]([O-])c1ccc(NC(CO)CO)c(C(F)(F)F)c1

["< 4.00", 4.15, "< 4.00"]

---

test system: SH-SY5Y; assay: Cytotoxicity against human SH-SY5Y cells assessed as reduction in cell viability; assay type: functional, cell-based
measure_name: IC50

For the 6 compounds below, give their IC50 values.
1. O=[N+]([O-])c1ccc(NC(CO)CO)c([N+](=O)[O-])c1
2. O=[N+]([O-])c1ccc(NC(CO)CO)c(C(F)(F)F)c1
3. O=[N+]([O-])c1ccc(NC(CO)CO)cc1C(F)(F)F
4. O=[N+]([O-])c1ccc(NC(CCl)CCl)cc1
5. O=[N+]([O-])c1ccc(NC(CCl)CCl)c([N+](=O)[O-])c1
6. O=[N+]([O-])c1ccccc1NC(CCl)CCl

> 100 µM
> 100 µM
> 100 µM
> 100 µM
> 100 µM
> 100 µM

Fill in IC50 for each of the 6 compounds listed.
1. O=[N+]([O-])c1cc(C(F)(F)F)ccc1NC(CO)CO
2. O=[N+]([O-])c1ccccc1NC(CO)CO
3. O=[N+]([O-])c1cc(C(F)(F)F)ccc1NC(CCl)CCl
4. O=[N+]([O-])c1ccc(NC(CO)CO)cc1
5. O=[N+]([O-])c1ccc(NC(CCl)CCl)cc1C(F)(F)F
6. O=[N+]([O-])c1ccc(NC(CCl)CCl)c(C(F)(F)F)c1

1: > 100 µM; 2: > 100 µM; 3: 62.5 µM; 4: > 100 µM; 5: 56.4 µM; 6: 33.7 µM

---

system: MCF7; assay: Cytotoxicity against human MCF7 cells assessed as reduction in cell viability; format: functional, cell-based
Field: IC50. Provide a value for each of the compounds that follow.
Answers are plain numbers, in µM.

Give one value of IC50 per listed compound.
1. O=[N+]([O-])c1cc(C(F)(F)F)ccc1NC(CCl)CCl
2. O=[N+]([O-])c1ccc(NC(CO)CO)cc1C(F)(F)F
3. O=[N+]([O-])c1ccccc1NC(CCl)CCl

1. 34.3
2. 88.1
3. 50.9

IC50 for MCF7 with input O=[N+]([O-])c1ccc(NC(CCl)CCl)c(C(F)(F)F)c1 equals 12.1

---

test system: MRC5; assay: Cytotoxicity against human MRC5 cells assessed as reduction in cell viability; assay type: cell-based
measure_name: IC50 (µM)
Give bare numbers, in µM.

Take a look at these entries with their results.
O=[N+]([O-])c1ccc(NC(CCl)CCl)c(C(F)(F)F)c1 = 31
O=[N+]([O-])c1cc(C(F)(F)F)ccc1NC(CCl)CCl = 62.1
O=[N+]([O-])c1ccc(NC(CCl)CCl)cc1 = 58.3
O=[N+]([O-])c1ccc(NC(CO)CO)cc1C(F)(F)F = 41
O=[N+]([O-])c1ccc(NC(CCl)CCl)c([N+](=O)[O-])c1 = 54.1
O=[N+]([O-])c1ccc(NC(CCl)CCl)cc1C(F)(F)F = 33.9

Okay, now this compound:
compound O=[N+]([O-])c1ccc(NC(CO)CO)cc1 , IC50 observed: 60.2

---

Consider the following compounds; for each one, report its viability at 100 µM.
tested on: HT-29; experiment: Cytotoxicity against human HT-29 cells assessed as cell viability at 100 uM relative to control; type: functional; details: read-out: Activity
Answers are plain numbers, in %.

O=[N+]([O-])c1ccc(NC(CO)CO)c(C(F)(F)F)c1 = 84.2
O=[N+]([O-])c1cc(C(F)(F)F)ccc1NC(CO)CO = 95.2
O=[N+]([O-])c1ccccc1NC(CCl)CCl = 65.3

State the recorded viability at 100 µM for every item in the following list.
1. O=[N+]([O-])c1ccc(NC(CCl)CCl)cc1
2. O=[N+]([O-])c1cc(C(F)(F)F)ccc1NC(CCl)CCl
3. O=[N+]([O-])c1ccc(NC(CO)CO)c([N+](=O)[O-])c1
4. O=[N+]([O-])c1ccccc1NC(CO)CO
5. O=[N+]([O-])c1ccc(NC(CCl)CCl)cc1C(F)(F)F

1: 60.9; 2: 47.1; 3: 89.6; 4: 86.1; 5: 38.4

Required: viability at 100 µM, one value per compound below.
1. O=[N+]([O-])c1ccc(NC(CO)CO)cc1
2. O=[N+]([O-])c1ccc(NC(CCl)CCl)c(C(F)(F)F)c1

1. 96.3
2. 45.3

// each compound listed below needs its viability at 100 µM
1. O=[N+]([O-])c1ccc(NC(CCl)CCl)c([N+](=O)[O-])c1
2. O=[N+]([O-])c1ccc(NC(CO)CO)cc1C(F)(F)F

[89.1, 110]
